Observable: melting point

Example results:
• COC(=O)C(C#N)c1ccccc1[N+](=O)[O-] (stereo not given) = 58 to 60 °C
• O=C1c2ccccc2S(=O)(=O)N1CBr = 155 to 157 °C
• CCOC(=O)c1ccc2cc(Cl)ccn2c1=O = 161 to 164 °C

Now let's try a different one.
Quote melting point reported for CC(CN1CCN(c2cccc(C(F)(F)F)c2)CC1)C(O)c1ccc2c(c1)oc(=O)n2C (stereo not given) please.
92 °C

----------
Below, each of the molecules is paired with its reported melting point value.

Example results:
* CCc1cn(C(C)(C)C(=O)N(C)C)nc1-c1ccccc1Cl | 102 to 104 °C
* CCOC(=O)c1cn(C2CC2)c2nc(N3CCC(N)C3)c(F)cc2c1=O (stereo not drawn) | 144 to 146 °C
* O=C(O)c1ccc(C=CC(=O)c2ccc(O)cc2)cc1 | 300 to 302 °C
* CC(C)c1nc(COCCOC(N)=O)n(Cc2ccccn2)c1Sc1cc(F)cc(F)c1 | 110 to 111 °C
* CN1CC(CO)CC2(O)c3cccc4[nH]cc(c34)CC12 (stereo not drawn) | 175 to 179 °C
* COc1cc(C(C)(C)O)cc(Br)c1O | 107 to 112 °C

Quote melting point reported for `COC(=O)c1ccc2ccccc2c1OCC(F)(F)F` please.
69.5 to 70.5 °C
